Documented percent of total Slo1 in complex across a set of binders
- study.target: hSlo1EM-eGFP-twin-strep (human Slo1 channel, tags on) (human)
- Sequence (Q12791 whole entry): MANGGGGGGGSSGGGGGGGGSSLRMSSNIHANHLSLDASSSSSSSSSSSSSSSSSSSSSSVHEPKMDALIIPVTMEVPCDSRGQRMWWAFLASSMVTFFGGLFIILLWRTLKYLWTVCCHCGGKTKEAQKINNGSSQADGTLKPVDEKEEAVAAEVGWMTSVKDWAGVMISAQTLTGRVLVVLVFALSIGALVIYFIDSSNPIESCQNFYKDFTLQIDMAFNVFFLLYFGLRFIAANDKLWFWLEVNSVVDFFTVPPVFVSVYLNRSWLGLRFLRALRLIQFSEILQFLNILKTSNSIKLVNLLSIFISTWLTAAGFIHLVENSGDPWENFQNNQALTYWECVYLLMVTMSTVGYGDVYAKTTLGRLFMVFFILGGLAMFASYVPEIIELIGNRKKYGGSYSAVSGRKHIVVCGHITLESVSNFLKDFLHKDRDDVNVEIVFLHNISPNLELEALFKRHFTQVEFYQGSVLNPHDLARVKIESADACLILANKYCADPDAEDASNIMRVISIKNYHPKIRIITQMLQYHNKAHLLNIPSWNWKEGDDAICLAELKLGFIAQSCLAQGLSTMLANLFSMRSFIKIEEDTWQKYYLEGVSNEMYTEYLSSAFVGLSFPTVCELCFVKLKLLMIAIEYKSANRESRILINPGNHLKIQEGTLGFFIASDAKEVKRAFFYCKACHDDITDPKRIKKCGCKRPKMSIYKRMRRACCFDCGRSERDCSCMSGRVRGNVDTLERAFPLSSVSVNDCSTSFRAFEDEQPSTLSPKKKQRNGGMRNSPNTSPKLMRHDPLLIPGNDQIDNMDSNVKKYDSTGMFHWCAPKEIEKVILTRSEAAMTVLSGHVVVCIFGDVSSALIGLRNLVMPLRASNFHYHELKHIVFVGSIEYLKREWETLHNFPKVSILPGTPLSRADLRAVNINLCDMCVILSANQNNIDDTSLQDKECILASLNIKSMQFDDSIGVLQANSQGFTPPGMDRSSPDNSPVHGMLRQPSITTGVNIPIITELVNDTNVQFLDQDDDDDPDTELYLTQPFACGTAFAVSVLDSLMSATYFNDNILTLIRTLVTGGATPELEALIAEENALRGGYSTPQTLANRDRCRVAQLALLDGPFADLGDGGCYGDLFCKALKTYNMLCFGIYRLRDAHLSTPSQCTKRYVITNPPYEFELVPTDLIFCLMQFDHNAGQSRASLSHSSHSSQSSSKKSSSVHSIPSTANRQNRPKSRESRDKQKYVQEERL

Some entries whose results are on file:
LRRC38 (γ4)-mCherry-FLAG (natural protein) CPAGCACTDPHTVDCRDRGLPSVPDPFPLDVRKLLVAGNRIQRIPEDFFIFYGDLVYLDFRNNSLRSLEEGTFSGSAKLVFLDLSYNNLTQLGAGAFRSAGRLVKLSLANNNLVGVHEDAFETLESLQVLELNDNNLRSLSVAALAALPALRSLRLDGNPWLCDCDFAHLFSWIQENASKLPKGLDEIQCSLPMESRRISLRELSEASFSECRFSLSLTDLCIIIFSGVAVSIAAIISSFFLATVVQCLQRCAPNKDAEDEDEDKDD: < 10%
human LRRC26 (γ1)-mCherry-FLAG (natural protein, UniProt Q2I0M4 27-334, looked up) QVSATASPSGSLGAPDCPEVCTCVPGGLASCSALSLPAVPPGLSLRLRALLLDHNRVRALPPGAFAGAGALQRLDLRENGLHSVHVRAFWGLGALQLLDLSANQLEALAPGTFAPLRALRNLSLAGNRLARLEPAALGALPLLRSLSLQDNELAALAPGLLGRLPALDALHLRGNPWGCGCALRPLCAWLRRHPLPASEAETVLCVWPGRLTLSPLTAFSDAAFSHCAQPLALRDLAVVYTLGPASFLVSLASCLALGSGLTACRARRRRLRTAALRPPRPPDPNPDPDPHGCASPADPGSPAAAAQA: 50%

Prompt: So what does the record say about percent of total Slo1 in complex for LRRC55 (γ3)-mCherry-FLAG (natural protein) GTSCPVLCTCRNQVVDCSSQRLFSVPPDLPMDTRNLSLAHNRITAVPPGYLTCYMELQVLDLHNNSLMELPRGLFLHAKRLAHLDLSYNNFSHVPADMFQEAHGLVHIDLSHNPWLRRVHPQAFQGLMQLRDLDLSYGGLAFLSLEALEGLPGLVTLQIGGNPWVCGCTMEPLLKWLRNRIQRCTADSQLAECRGPPEVEGAPLFSLTEESFKACHLTLTLDDYLFIAFVGFVVSIASVATNFLLGITANCCHRWSKASEEEEI ?
Completion: < 10%
